Where do these numbers come from? They come from ChEMBL document CHEMBL3758140.

Target: UniProt P09917
Sequence (P09917 whole entry): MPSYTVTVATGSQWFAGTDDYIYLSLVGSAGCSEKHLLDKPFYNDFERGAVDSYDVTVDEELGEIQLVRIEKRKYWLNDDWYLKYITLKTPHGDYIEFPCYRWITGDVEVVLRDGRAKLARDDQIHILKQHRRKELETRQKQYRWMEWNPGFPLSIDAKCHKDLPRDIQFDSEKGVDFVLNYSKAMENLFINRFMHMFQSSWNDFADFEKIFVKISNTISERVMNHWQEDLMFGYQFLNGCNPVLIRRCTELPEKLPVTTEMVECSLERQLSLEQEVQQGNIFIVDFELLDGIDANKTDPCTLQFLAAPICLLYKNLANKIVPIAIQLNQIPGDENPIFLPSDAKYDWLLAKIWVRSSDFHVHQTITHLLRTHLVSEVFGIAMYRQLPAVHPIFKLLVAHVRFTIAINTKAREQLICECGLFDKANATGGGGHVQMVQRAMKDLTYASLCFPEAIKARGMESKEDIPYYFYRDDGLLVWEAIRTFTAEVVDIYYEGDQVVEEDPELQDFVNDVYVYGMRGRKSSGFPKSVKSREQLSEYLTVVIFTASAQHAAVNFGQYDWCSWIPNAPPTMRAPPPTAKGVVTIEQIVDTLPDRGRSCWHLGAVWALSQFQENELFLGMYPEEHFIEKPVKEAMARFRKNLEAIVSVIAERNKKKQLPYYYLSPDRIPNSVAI
Assay: Inhibition of human recombinant 5-LOX expressed in Escherichia coli BL21 using arachidonic acid as substrate assessed as LTB4 formation preincubated for 15 mins measured after 10 mins by HPLC analysis
pIC50: −log10 of the molar value.
recorded.endpoint: pIC50

Before answering, review these 5 worked examples.
input.smiles	system	pIC50
CCOC(=O)c1c(CSc2ccccc2Cl)n(C)c2c1cc(OC)c1ccccc12	UniProt P09917	< 5.00
CCOC(=O)c1c(CSc2cc(C)cc(C)c2)[nH]c2c1cc(O)c1ccccc12	UniProt P09917	< 6.00
CCOC(=O)c1c(CSc2c(C)cccc2C)[nH]c2c1cc(O)c1ccccc12	UniProt P09917	< 6.00
CCOC(=O)c1c(CSc2cccc(Cl)c2)[nH]c2c1cc(O)c1ccccc12	UniProt P09917	< 6.00
CCOC(=O)c1c(CSc2cccc(Cl)c2Cl)[nH]c2c1cc(O)c1ccccc12	UniProt P09917	< 6.00

[in] Entry `CCOC(=O)c1c(CSc2ccccc2Cl)n(C)c2c1cc(O)c1ccccc12` has what pIC50?
[out] < 5.00
